- System: TR66 antibody (CD3ε specific antibody, clone TR66)
- Measurement Notes: Binding analysis using peptide ELISA, biotinylated peptides on streptavidin plates, TR66
- Settings: TR66; mean of at least two individual measurements; two-site saturation binding model; read-out: Apparent KD, ELISA
Positions of bridges follow the written chain, without caps; N, C: chain ends. Residues, ends and D or L forms follow the SMILES beside them. *: point of attachment. Biotin = O=C1N[C@H]2[C@H](CS[C@H]2CCCCC(=O)*)N1
Metric Name: pKd
Remember, pKd is on a log scale: it is -log10 of the molar concentration.

INSERT INTO measurements (compound, metric_name, quantitative_result) VALUES
  ('C[C@H](N)C(=O)N[C@H]1CSSC[C@@H](C(=O)NCC(=O)NCC(=O)NCC(=O)N[C@@H](CO)C(=O)N[C@@H](CCCCNC(=O)CCCC[C@@H]2SC[C@@H]3NC(=O)N[C@@H]32)C(=O)O)NC(=O)[C@H](Cc2c[nH]c3ccccc23)NC(=O)[C@@H]2CCCN2C(=O)[C@H](CC(=O)O)NC(=O)[C@H](CC(=O)O)NC(=O)[C@@H]2CCCN2C(=O)[C@H](CCCNC(=N)N)NC(=O)[C@H]([C@@H](C)O)NC1=O [aCD3-04-014, ACTRPDDPWC-GGGS-K(Bio)] (H-ACTRPDDPWCGGGSK(Biotin)-OH; disulfide 2-10)', 'pKd', 6.95);

Let us examine a further case.
q: Sample C[C@H](N)C(=O)N[C@H]1CSSC[C@@H](C(=O)NCC(=O)NCC(=O)NCC(=O)N[C@@H](CO)C(=O)N[C@@H](CCCCNC(=O)CCCC[C@@H]2SC[C@@H]3NC(=O)N[C@@H]32)C(=O)O)NC(=O)[C@H](CCC(=O)O)NC(=O)[C@@H]2CCCN2C(=O)[C@H](CC(=O)O)NC(=O)[C@H](CC(=O)O)NC(=O)[C@@H]2CCCN2C(=O)[C@H](CCCNC(=N)N)NC(=O)[C@H]([C@@H](C)O)NC1=O [aCD3-04-013, ACTRPDDPEC-GGGS-K(Bio)] (H-ACTRPDDPECGGGSK(Biotin)-OH; disulfide 2-10) — what was its pKd?
a: 8.40
